Biological target: T1, recombinant human PD-1 Fc chimera (human, UniProt Q15116 25-167)
T1 construct: Bought protein (R&D 1086-PD in the HTRF assay); also called human PD-1-hu Fc; huPD-1Fc; not shown: human Fc
T1 sequence (Q15116 25-167 limits assumed, change not shown): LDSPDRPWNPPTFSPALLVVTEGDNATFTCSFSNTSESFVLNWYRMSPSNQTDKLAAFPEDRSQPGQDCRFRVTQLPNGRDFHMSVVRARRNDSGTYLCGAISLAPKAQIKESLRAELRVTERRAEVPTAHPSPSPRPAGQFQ
Assay: HTRF binding assay, 2 nM recombinant PD1, anti His-D2 and anti human-Fc cryptate
Endpoint: pEC50
Conceptually, pEC50 converts a concentration in mol/L into minus its log10.

Exam item: I have this binder here, 1.1b-6GS-1.1a (other, Biparatopic VH-linker-VH) QVQLVESGGGLVKPGGSLRLSCAASGFTFSDYTMTWMRQAPGKGLEWVSYISTGGTIKYYTDSVKGRFTISRDNAKNSLYLQMNSLRADDTAVYYCAREAPLRLGESPHDAFDIWGQGTMVTVSSGGGGSGGGGSGGGGSGGGGSGGGGSGGGGSEVQLLESGGGSVQPGRSLRLSCAASGFTFDDHAMHWVRQAPGKGLEWVSGISWNSGSMGYADSVKDRFTISRDNAKSSLYLQMNSLRAEDTALYYCVREKGPGLTGSTADYYGLDVWGQGTMVTVSS , and I need its recorded pEC50.
Marked response: 9.30
